# Tested on: glycogen synthase kinase-3 (GSK3A per assay name; protocol says GSK3B)
# Method summary: GSK3 binders on small-molecule microarrays, primary screen, biochemical, small-molecule microarray, 635 nm fluorescence, GSK3A (AID 1103); further: the record names both GSK3A and GSK3B
# Condition description: small-molecule microarray binding, fluorescence 635 nm; higher = more signal
This section presents molecules with their documented composite z-score values.
Observed property: composite z-score

# Molecule, Observed property, Measured value
measured = [
    ("CC(CCN1CCCc2nc(C)c(C)cc21)=NOC[C@@H](O)COCc1ccco1", "composite z-score", 1.22),
    ("CC(CCN1CCc2nc(-c3ccccc3)c(-c3ccccc3)cc2C1)=NO[C@H](C)c1cn([C@H](CO)Cc2ccccc2)nn1", "composite z-score", -0.135),
    ("CO[C@@H]1COC(=O)[C@H](COCc2ccccc2)NC(=O)CC=C[C@@H](C)[C@H](OC)COC(=O)[C@@H](C)NC(=O)CC=C[C@H]1C", "composite z-score", -0.314),
    ("CC(C)=CCCC(C)=CCON=C1C[C@@H](O)[C@@H](O)[C@@H]2[C@@H]3C(=O)N(Cc4ccc5c(c4)OCO5)C(=O)[C@@H]3CC[C@@H]12", "composite z-score", 0.579),
    ("CO[C@@H]1C=CCC(=O)N[C@@H](C)C(=O)OC[C@@H](NS(=O)(=O)c2ccc(C)cc2)[C@H](C)C=CCC(=O)OC[C@H]1C", "composite z-score", -0.0731),
    ("CCc1cc2c(nc1CC)CCN(CCC(C)=NO[C@@H]1O[C@H](COC(C)=O)[C@@H](OC(C)=O)[C@H](OC(C)=O)[C@H]1OC(C)=O)C2", "composite z-score", 0.642),
    ("COC(=O)[C@H](C)NC(=O)CCC1CC(OC(=O)NCc2cccc3ccccc23)CC2(CCCC(COC(=O)NCCC(C)C)O2)O1 (stereo not given in full)", "composite z-score", 0.247),
    ("CC(=O)OC[C@H]1O[C@H](CCON=C(C)CCN2CCCc3nc(C)c(C)cc32)C=C[C@@H]1OC(C)=O", "composite z-score", 1.24),
    ("CC(C)CON=C1C[C@@H](O)[C@@H](O)[C@@H]2[C@@H]3C(=O)N([C@@H](C)c4ccccc4)C(=O)[C@@H]3CC[C@@H]12", "composite z-score", -0.0708),
    ("C#CCCCON=C1[C@H]2CCn3c(=O)n([C@@H](CC)c4ccccc4)c(=O)n3[C@H]2[C@H](O)[C@@H]2O[C@H]12", "composite z-score", -0.51),
    ("O=C(NCCC[N+]1=CC=NC1c1ccccc1)N1CCCc2nc(-c3ccc(Br)cc3)ccc21 (stereo not given)", "composite z-score", 0.212),
    ("O=C1[C@H]2[C@H]3[C@H](O)[C@H](O)CC(=NOC[C@@H](O)COCc4ccco4)[C@@H]3CC[C@H]2C(=O)N1Cc1ccc2c(c1)OCO2", "composite z-score", 1.3),
    ("COC(=O)CC=C[C@@H](C)[C@@H](C=NOC(C)CN1CCCCc2nc(C)c(C)cc21)OC (stereo not given in full)", "composite z-score", 0.959),
    ("O=C1C=C[C@@H](O)[C@@H]2[C@@H]3C(=O)N(C4CCCCC4)C(=O)[C@@H]3CC[C@@H]12", "composite z-score", 0.708),
    ("O=C1CCCC=C1C(O)c1ccc([N+](=O)[O-])cc1 (stereo not given)", "composite z-score", 0.288),
    ("CON=C(C)CCN1CCCCc2nc(C)c(C)cc21", "composite z-score", 0.213),
    ("C=CC[C@@H]1C=C[C@H](ON=C2C[C@@H](O)[C@@H](O)[C@@H]3[C@@H]4C(=O)N(CC)C(=O)[C@@H]4CC[C@@H]23)[C@@H](CO)O1", "composite z-score", -0.653),
    ("O=C1[C@H]2[C@H]3[C@H](O)[C@H](O)CC(=NO[C@@H]4O[C@H](CO)[C@@H](O)[C@H](O)[C@H]4O)[C@@H]3CC[C@H]2C(=O)N1c1cccc(Oc2ccccc2)c1", "composite z-score", 0.736),
    ("CCN1C(=O)[C@H]2[C@H]3[C@H](O)[C@H](O)CC(=NOC[C@@H](O)[C@H]4O[C@@H]5OC(C)(C)O[C@@H]5[C@H]4O)[C@@H]3CC[C@H]2C1=O", "composite z-score", -0.246),
    ("C[C@H]1CC[C@H]2C(=O)O[C@H](CO)CN2[C@@H]1c1ccc(Br)cc1", "composite z-score", -0.348),
    ("C[C@@H]1CC[C@@H](C(=O)O)N[C@H]1c1cccc(N2CCOCC2)c1", "composite z-score", 0.74),
    ("CCN1C(=O)[C@H]2[C@H]3[C@H](O)[C@H](O)CC(=NOCC=C(C)CCC=C(C)C)[C@@H]3CC[C@H]2C1=O", "composite z-score", 0.938),
    ("CC(C)CON=C1C[C@@H](O)[C@@H](O)[C@@H]2[C@@H]3C(=O)N(Cc4ccc5c(c4)OCO5)C(=O)[C@@H]3CC[C@@H]12", "composite z-score", -0.315),
    ("CCN1C(=O)[C@H]2[C@H]3[C@H](O)[C@H](O)CC(=NO[C@H](C)c4cn([C@H](CO)Cc5ccccc5)nn4)[C@@H]3CC[C@H]2C1=O", "composite z-score", 0.978),
    ("CC(C)=NO[C@@H](C)c1cn([C@H](CO)Cc2ccccc2)nn1", "composite z-score", 0.523),
    ("COc1ccc(-c2cnnc(CCCn3ccnc3-c3ccccc3)n2)cc1", "composite z-score", 0.7),
    ("CC(C)CON=C1C[C@@H](O)[C@@H](O)[C@@H]2[C@@H]3C(=O)N(c4ccc(F)cc4F)C(=O)[C@@H]3CC[C@@H]12", "composite z-score", 0.598),
    ("CC(=O)OC[C@H]1O[C@H](CC=NOC(C)CN2CCCc3nc(C)c(C)cc32)C=C[C@@H]1OC(C)=O (stereo not given in full)", "composite z-score", 0.961),
    ("O=C1[C@H]2[C@H]3[C@H](O)[C@H](O)CC(=NO[C@@H]4O[C@H](CO)[C@@H](O)[C@H](O)[C@H]4O)[C@@H]3CC[C@H]2C(=O)N1C1CCCCC1", "composite z-score", 0.607),
    ("COc1ccc(COC(=O)NN=C2C[C@@H](O)[C@@H](O)[C@@H]3[C@@H]4C(=O)N(Cc5ccc6c(c5)OCO6)C(=O)[C@@H]4CC[C@H]23)cc1", "composite z-score", -0.104),
]
